- Tested on: conscious salt-loaded spontaneously hypertensive rats
- Procedure Details: MAP in conscious salt-loaded SHR, daily oral gavage of drugs dissolved in DMSO
- Format: in vivo, rat
- Measurement Parameters: mean vehicle-adjusted fall, 2 mL of 10 mmol/L daily oral gavage, DMSO, n=3
Exercise: for every item that follows, state its recorded Δ MAP Day 2.
# number then unit; no other words

Exercise: conscious salt-loaded spontaneously hypertensive rats / Δ MAP Day 2 / `CCCc1nc2c(C)cc(-c3nc4ccccc4n3C)cc2n1Cc1ccc(-c2ccccc2C(=O)NC2CC(C)(C)N([O])C(C)(C)C2)cc1` : value?
Solution: −14 mmHg

Exercise: conscious salt-loaded spontaneously hypertensive rats / Δ MAP Day 2 / `CCCc1nc2c(C)cc(-c3nc4ccccc4n3C)cc2n1Cc1ccc(-c2ccccc2C(=O)OC2CC(C)(C)N([O])C(C)(C)C2)cc1` : value?
Solution: −14 mmHg

Exercise: conscious salt-loaded spontaneously hypertensive rats / Δ MAP Day 2 / `CCCc1nc2c(C)cc(-c3nc4ccccc4n3C)cc2n1Cc1ccc(-c2ccccc2C(=O)O)cc1` : value?
Solution: −20 mmHg

Exercise: conscious salt-loaded spontaneously hypertensive rats / Δ MAP Day 2 / `CC1(C)CC(O)CC(C)(C)N1[O]` : value?
Solution: −4 mmHg

Taken from patent US9233949B2.
